# Test Target: Fuc(a1-2)Gal(b1-3)GalNAc(b1-3)Gal(a1-4)Gal(b1-4)Glc
# Assay: glycan array binding signal (z-score within array); higher = stronger binding
# Experimental Conditions: glycan notation: IUPAC condensed, linker removed
Only a selection was taken, and the strongest signals are over-represented in it overall.
The entries below are paired with their reported glycan array binding signal (z-score).
Form: value (number only, do not type unit).

**Query** Quick check: glycan array binding signal (z-score) of ECA (Erythrina cristagalli), P83410 (protein) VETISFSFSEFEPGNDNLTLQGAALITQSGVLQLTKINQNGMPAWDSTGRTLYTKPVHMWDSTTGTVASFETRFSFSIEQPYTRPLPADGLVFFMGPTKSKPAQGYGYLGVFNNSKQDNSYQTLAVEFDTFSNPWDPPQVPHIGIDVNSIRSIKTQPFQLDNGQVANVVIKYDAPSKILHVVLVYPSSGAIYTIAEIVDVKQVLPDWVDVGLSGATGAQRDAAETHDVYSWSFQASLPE ?
**Result** -0.125

**Query** Okay, and Glycodelin A (Homo sapiens), P09466 (protein) MLCLLLTLGVALVCGVPAMDIPQTKQDLELPKLAGTWHSMAMATNNISLMATLKAPLRVHITSLLPTPEDNLEIVLHRWENNSCVEKKVLGEKTENPKKFKINYTVANEATLLDTDYDNFLFLCLQDTTTPIQSMMCQYLARVLVEDDEIMQGFIRAFRPLPRHLWYLLDLKQMEEPCRF ?
**Result** -0.485

**Query** Okay, and TbCVNHOb (Tuber borchii) (protein) MSFYASSEDVRTIEEGGRTWLVGRARRADGSWQDIKLDLDNIIGNRDGHLTWGEQNFTQSASDIRFNFEGGSNVPVLRAKLRNAAGGEQESDLNLGERLTNNNGDLVFN ?
**Result** 0.303
